Sourced from patent US8283352B2

Assay: Solubility of lurasidone or a free form thereof in additives (Table 1), visual check
Assay type: physicochemical
Conditions: oil or lipid, thermodynamic from solid; additive No. 50: Camellia oil
Structures can show the parent of a compound that is named as a salt.
Reported Endpoint: solubility at 30 min

INSERT INTO measurements (compound, reported_endpoint, recorded_result) VALUES
  ('O=C1[C@@H]2[C@H]3CC[C@H](C3)[C@@H]2C(=O)N1C[C@@H]1CCCC[C@H]1CN1CCN(c2nsc3ccccc23)CC1 [Lurasidone, hydrochloride]', 'solubility at 30 min', '1000 to 10000 µg/mL');

---

Assay: Solubility of lurasidone or a free form thereof in additives (Table 1), visual check
Format: physicochemical
Details: aqueous with cosolvent or surfactant or cyclodextrin, thermodynamic from solid; additive No. 2: Sodium citrate
Counter-ions that a name gives are not always drawn.
Reported Endpoint: solubility at 30 min

INSERT INTO assay_data (compound, recorded_result) VALUES
  ('O=C1[C@@H]2[C@H]3CC[C@H](C3)[C@@H]2C(=O)N1C[C@@H]1CCCC[C@H]1CN1CCN(c2nsc3ccccc23)CC1 [Lurasidone, hydrochloride]', '< 10000 µg/mL');
